targetUnderTest: human HIF-PHD2 (Homo sapiens)
Construct: purchased CrystalGenomics Ltd
Sequence (Q9GZT9 2-426 limits assumed): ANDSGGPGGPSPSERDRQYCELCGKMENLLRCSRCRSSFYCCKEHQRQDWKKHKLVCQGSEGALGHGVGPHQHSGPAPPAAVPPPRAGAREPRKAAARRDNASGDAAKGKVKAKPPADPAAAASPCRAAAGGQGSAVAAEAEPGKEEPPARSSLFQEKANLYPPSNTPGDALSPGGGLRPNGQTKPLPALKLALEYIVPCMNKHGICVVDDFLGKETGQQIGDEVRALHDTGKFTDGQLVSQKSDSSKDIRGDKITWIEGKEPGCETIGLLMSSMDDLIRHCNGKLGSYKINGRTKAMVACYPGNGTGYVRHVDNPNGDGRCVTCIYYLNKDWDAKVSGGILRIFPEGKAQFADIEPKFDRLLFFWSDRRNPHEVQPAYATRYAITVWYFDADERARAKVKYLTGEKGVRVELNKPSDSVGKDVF
assayProtocol: HIF-PHD inhibition assay (fluorescence polarization), human HIF-PHD2
Assay type: biochemical
conditionLabel: 2-oxoglutaric acid 3.33 μmol/L
measuredEndpoint: IC50 (µM)
Give bare numbers, in µM.

The examples below pair each entry with its known result.
O=C(O)c1cnn(-c2nc(O)c3c(cnn3CCCOc3ccc4c(c3)CCC4)n2)c1    0.022
C[C@@H](c1ccc(OC(F)(F)F)cc1)n1ncc2nc(-n3cc(C(=O)O)cn3)nc(O)c21    0.015
O=C(O)c1cnn(-c2nc(O)c3c(cnn3C(c3ccc(F)c(Cl)c3)C3CC3)n2)c1 (stereo not shown)    0.056
CC(C)C(c1cccc(C(F)(F)F)c1)n1ncc2nc(-n3cc(C(=O)O)cn3)nc(O)c21 (single isomer, unassigned)    0.057

Hi there! I need IC50 for each item below, if you can.
1. O=C(O)c1cnn(-c2nc(O)c3c(cnn3Cc3ccc(-c4cccc(Cl)c4Cl)cc3)n2)c1
2. Cc1ccc([C@H](C)n2nc(F)c3nc(-n4cc(C(=O)O)cn4)nc(O)c32)cc1C
3. CC(c1cc(Cl)c(Cl)s1)n1ncc2nc(-n3cc(C(=O)O)cn3)nc(O)c21 (single isomer, unassigned) [Example 320]

Result block:
1. 0.02
2. 0.06
3. 0.018

---

IC50 values recorded for human HIF-PHD3 (Homo sapiens, UniProt Q9H6Z9)
Give bare numbers, in µM.

The examples below pair each entry with its known result.
CC[C@@H](c1ccc(OC(F)(F)F)c(Cl)c1)n1ncc2nc(-n3cc(C(=O)O)cn3)nc(O)c21    0.49
O=C(O)c1cnn(-c2nc(O)c3c(cnn3Cc3cc(C(F)(F)F)cc(Cl)c3F)n2)c1    0.78
O=C(O)c1cnn(-c2nc(O)c3c(cnn3Cc3ccc(F)c(Cl)c3)n2)c1    0.24
Cc1ccc([C@H](C)n2nc(F)c3nc(-n4cc(C(=O)O)cn4)nc(O)c32)cc1C    0.43
CCCC(CCC)Cn1ncc2nc(-n3cc(C(=O)O)cn3)nc(O)c21    0.5

Hi there! I need IC50 for each item below, if you can.
1. O=C(O)c1cnn(-c2nc(O)c3c(cnn3C[C@H]3CC[C@@H](Oc4ccc(F)cc4)CC3)n2)c1
2. O=C(O)c1cnn(-c2nc(O)c3c(cnn3Cc3ccc(-c4ccccc4)cc3F)n2)c1
3. C[C@@H](c1ccc(F)cc1Cl)n1cc2nc(-n3cc(C(=O)O)cn3)nc(O)c2n1

Result block:
1. 0.41
2. 0.068
3. 0.44

---

targetUnderTest: UniProtKB Q9H6Z9
measuredEndpoint: IC50 (nM)
Give bare numbers, in nM.

The examples below pair each entry with its known result.
C[C@@H](c1ccc(Cl)c(Cl)c1)n1nc(F)c2nc(-n3cc(C(=O)O)cn3)nc(O)c21    160
O=C(O)c1cnn(-c2nc(O)c3c(cnn3C[C@H]3CC[C@@H](Oc4ccccc4F)CC3)n2)c1    330

Hi there! I need IC50 for each item below, if you can.
1. CC1(C)CCCC(n2ncc3nc(-n4cc(C(=O)O)cn4)nc(O)c32)C1 (single isomer, unassigned) [Example 412]
2. O=C(O)c1cnn(-c2nc(O)c3c(cnn3CCCOc3ccc(Cl)cc3)n2)c1

Result block:
1: 590; 2: 360

---

pIC50 values recorded for human HIF-PHD3 (Homo sapiens)
Numbers only, as −log10 of the molar value.

The examples below pair each entry with its known result.
Cc1nn(CCC2CCCC2)c2c(O)nc(-n3cc(C(=O)O)cn3)nc12    6.24
C[C@@H](C1CCN(c2cccc(C(F)(F)F)c2)CC1)n1ncc2nc(-n3cc(C(=O)O)cn3)nc(O)c21    6.38
O=C(O)c1cnn(-c2nc(O)c3c(cnn3C(c3ccc(Cl)cc3)c3ccc(Cl)cc3)n2)c1    5.59

Hi there! I need pIC50 for each item below, if you can.
1. Cc1ccc([C@@H](C)n2ncc3nc(-n4cc(C(=O)O)cn4)nc(O)c32)cc1C(F)(F)F
2. Cc1ccc([C@H](C)n2ncc3nc(-n4cc(C(=O)O)cn4)nc(O)c32)cc1C(F)(F)F
3. C[C@@H](c1ccc(-c2ccccc2F)cc1)n1ncc2nc(-n3cc(C(=O)O)cn3)nc(O)c21
4. CC(C)(Cn1ncc2nc(-n3cc(C(=O)O)cn3)nc(O)c21)c1ccc(Cl)c(Cl)c1
5. COc1ccc(-c2cccc(Cn3ncc4nc(-n5cc(C(=O)O)cn5)nc(O)c43)c2)cc1

Result block:
1. 6.21
2. 6.38
3. 7.06
4. 6.21
5. 5.85

---

IC50 values recorded for human HIF-PHD2 (Homo sapiens, UniProt Q9GZT9)
One number for each entry, in nM.

The examples below pair each entry with its known result.
O=C(O)c1cnn(-c2nc(O)c3c(cnn3Cc3ccc(-c4ccccc4F)cc3)n2)c1 [Example 56]    16
CCC(c1ccc(F)cc1)n1ncc2nc(-n3cc(C(=O)O)cn3)nc(O)c21 (stereo not drawn) [Example 324]    95
CCC1CCCC(n2ncc3nc(-n4cc(C(=O)O)cn4)nc(O)c32)C1 (single isomer, unassigned) [Example 416]    18

Hi there! I need IC50 for each item below, if you can.
1. O=C(O)c1cnn(-c2nc(O)c3c(cnn3C[C@H]3CC[C@H](c4ccc(Cl)cc4)CC3)n2)c1 [Example 156]
2. C[C@@H](c1ccc(F)cc1Cl)n1ncc2nc(-n3cc(C(=O)O)cn3)nc(O)c21 [Example 252]
3. CC(c1ccc(N2CCC(C(F)(F)F)CC2)cc1)n1ncc2nc(-n3cc(C(=O)O)cn3)nc(O)c21 (racemic) [Example 423]
4. CC1CC(n2ncc3nc(-n4cc(C(=O)O)cn4)nc(O)c32)CC(C)(C)C1 (single isomer, unassigned) [Example 408]
5. O=C(O)c1cnn(-c2nc(O)c3c(cnn3CC3Cc4ccccc4C3)n2)c1 [Example 154]

Result block:
[20, 99, 31, 38, 29]

Hi there! I need IC50 for each item below, if you can.
1. C[C@@H](c1cc(C(F)(F)F)cc(C(F)(F)F)c1)n1ncc2nc(-n3cc(C(=O)O)cn3)nc(O)c21 [Example 272]
2. Cc1nn([C@H]2CC[C@H](C)CC2)c2c(O)nc(-n3cc(C(=O)O)cn3)nc12 [Example 483]
3. O=C(O)c1cnn(-c2nc(O)c3c(cnn3CCC3CCN(c4ccc(C(F)(F)F)cc4)CC3)n2)c1 [Example 172]
4. Cc1c(OCCCn2ncc3nc(-n4cc(C(=O)O)cn4)nc(O)c32)ccc2c1CCCC2 [Example 190]
5. O=C(O)c1cnn(-c2nc(O)c3c(cnn3CCCOc3cccc(C(F)(F)F)c3)n2)c1 [Example 174]
6. CC(C)[C@@H]1CC[C@@H](C)C[C@@H]1n1ncc2nc(-n3cc(C(=O)O)cn3)nc(O)c21 [Example 403]
7. C[C@H]1CC[C@H](n2ncc3nc(-n4cc(C(=O)O)cn4)nc(O)c32)CC1 [Example 384]

Result block:
[79, 110, 34, 14, 32, 140, 60]

---

Please respond with reported IC50 for every item in the list.
targetUnderTest: human HIF-PHD3 (Homo sapiens, UniProt Q9H6Z9)
Sequence (Q9H6Z9 whole entry): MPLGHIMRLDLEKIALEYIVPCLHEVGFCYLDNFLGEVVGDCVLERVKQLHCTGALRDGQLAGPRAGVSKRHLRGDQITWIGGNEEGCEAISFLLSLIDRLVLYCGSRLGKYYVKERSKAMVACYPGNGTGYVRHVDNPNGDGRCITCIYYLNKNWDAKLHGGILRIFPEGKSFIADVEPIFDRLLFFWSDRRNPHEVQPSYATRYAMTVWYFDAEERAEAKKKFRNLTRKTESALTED
Where a name gives a salt, the structure may show the parent alone.
One number for each entry, in nM.

O=C(O)c1cnn(-c2nc(O)c3c(cnn3CCC3CCN(c4ccc(C(F)(F)F)cc4)CC3)n2)c1    250
O=C(O)c1cnn(-c2nc(O)c3c(cnn3CC3CCN(Cc4ccc(F)cc4)CC3)n2)c1 [Example 2, hydrochloride]    1100
Cc1nn([C@H]2CC[C@H](C)CC2)c2c(O)nc(-n3cc(C(=O)O)cn3)nc12    1200
CC1CCCC(n2ncc3nc(-n4cc(C(=O)O)cn4)nc(O)c32)C1 (centres unmarked) [Example 400]    600

Hi there! I need IC50 for each item below, if you can.
1. O=C(O)c1cnn(-c2nc(O)c3c(cnn3Cc3ccc(F)c(-c4ccccc4)c3)n2)c1
2. O=C(O)c1cnn(-c2nc(O)c3c(cnn3CCc3ccc4ccccc4c3)n2)c1
3. O=C(O)c1cnn(-c2nc(O)c3c(cnn3C(c3ccc(F)c(Cl)c3)C3CC3)n2)c1 (centres unmarked) [Example 370]
4. O=C(O)c1cnn(-c2nc(O)c3c(cnn3Cc3ccccc3-c3ccccc3)n2)c1

Result block:
1. 190
2. 190
3. 380
4. 1800

Hi there! I need IC50 for each item below, if you can.
1. O=C(O)c1cnn(-c2nc(O)c3c(cnn3C[C@H]3CCN(c4ccc(C(F)(F)F)cc4)C3)n2)c1
2. CCC(c1ccc(C(F)(F)F)cc1)n1ncc2nc(-n3cc(C(=O)O)cn3)nc(O)c21 (single isomer, unassigned)

Result block:
[310, 1200]

Hi there! I need IC50 for each item below, if you can.
1. C[C@@H](c1ccccc1)n1ncc2nc(-n3cc(C(=O)O)cn3)nc(O)c21
2. O=C(O)c1cnn(-c2nc(O)c3c(cnn3CC(F)(F)c3ccc(Cl)cc3)n2)c1
3. O=C(O)c1cnn(-c2nc(O)c3c(n2)c(C2CC2)nn3CC2CCCCC2)c1
4. O=C(O)c1cnn(-c2nc(O)c3c(n2)c(C(F)(F)F)nn3CC2CCCCC2)c1
5. O=C(O)c1cnn(-c2nc(O)c3c(cnn3C(c3ccc(F)c(Cl)c3)C3CC3)n2)c1 (single isomer, unassigned) [Example 371]
6. CC[C@H]1CC[C@H](n2nc(F)c3nc(-n4cc(C(=O)O)cn4)nc(O)c32)CC1

Result block:
[480, 910, 660, 830, 400, 670]

Hi there! I need IC50 for each item below, if you can.
1. O=C(O)c1cnn(-c2nc(O)c3c(cnn3Cc3ccc(Cl)cc3F)n2)c1
2. CC1(C)CC(n2ncc3nc(-n4cc(C(=O)O)cn4)nc(O)c32)CC(C)(C)C1
3. O=C(O)c1cnn(-c2nc(O)c3c(n2)c(F)nn3CCC2CCCC2)c1
4. O=C(O)c1cnn(-c2nc(O)c3c(cnn3C(c3ccc(Cl)cc3)C3CC3)n2)c1 (centres unmarked)
5. CC1(C)CCC(n2nc(F)c3nc(-n4cc(C(=O)O)cn4)nc(O)c32)CC1
6. O=C(O)c1cnn(-c2nc(O)c3c(cnn3[C@H]3CCc4ccccc43)n2)c1

Result block:
740
780
170
780
480
720
